# Test system: PBMC from 30 HC individuals
# assay-text: ex vivo IFNγ ELISPOT with NTM-specific peptides
# Type: cell-based, human
property: Total SFC (SFC)

- GRLIGWLAKVLAEHP [Peptide 1258]: 60
- ALLYIPLLTRMLMNL [Peptide 777]: 87
- HEEIQLLANDFSTML [Peptide 446]: 182
- SQRLVTLSYRLDAAA [Peptide 1471]: 58
- PLAENYLRLNALGAY [Peptide 1364]: 228
- DPLIFFRPRVERLFG [Peptide 720]: 125
- YNVVIYPVTTLRLAM [Peptide 1556]: 122
- ETTRNLIALGTLALI [Peptide 829]: 93
- LMVLFQYGVALHELE [Peptide 7]: 138
- LMLIWACDLIVAADN [Peptide 1224]: 97
- QWGYRMVLPQLILMP [Peptide 868]: 58
- HQGLAFLLADMAAAV [Peptide 8]: 58
- RFTLLRPLLFTIAYE [Peptide 311]: 477

Just for reference, patent US10406218B2 is where these values come from.
